Molecular target: lens aldose reductase (Bos taurus)
Construct: the preparation of the enzyme from bovine lens; from tissue; host or cells: bovine lens
Test: in vitro aldose reductase inhibition (modified Hayman and Kinoshita procedure)
Format: biochemical
Conditions: 10^-7 molar; enzyme from bovine lens; read-out: % Inhibition at Different Molar Concentrations (in vitro)
Text: In the present case, the procedure of Hayman and Kinoshita is modified in that the final chromatography step is omitted in the preparation of the enzyme from bovine lens. Table 1 gives the results of the compounds of formula I or an addition salt thereof when evaluated in the above in vitro test.
measured-attribute: inhibition at 0.1 µM (%)

Some compounds with recorded inhibition at 0.1 µM:
> print(dat)
                    structure.smiles.string  measured
1  CN(C)CCCOC(=O)CN1C(=S)c2cccc3c(Cl)ccc1c23        14
2             O=C(O)CN1C(=S)c2cccc3cccc1c23        61
3          O=C(O)CN1C(=S)c2cccc3c(F)ccc1c23        56
4          O=C(O)CN1C(=S)c2cccc3c(I)ccc1c23        81

(I) O=C(O)CN1C(=S)c2cccc3c(Cl)cc(Cl)c1c23
(II) O=C(O)CN1C(=S)c2cccc3c(Cl)ccc1c23
(III) O=C(O)CN1C(=S)c2cccc3c(Br)cc(Br)c1c23
Challenge: Order these by inhibition at 0.1 µM, descending, and give the full ranking. # list labels per requested ordering
Response given: II, I, III
(II: 66%, I: 30%, III: 13%)
